// provenance: patent US20140057807A1

- experimental_system: human small ubiquitin-like modifier 1 (human) (UniProt P63165)
- test_details: SPR (monobody on the chip via His-tag, target flowed); estimated Kd [Continued]
readout_type: Kd (nM)

1. SEQ ID NO 90 (designed binder) VSSVPTKLEVVAATPTSLLISWDASSSSVSHYEITYGETGGNSPVQEFTVPGSSSTATISGLSPGVDYTITVYAYYSHEDIFYAVSPSSINYRT
145
2. SEQ ID NO 93 (designed binder) VSSVPTKLEVVAATPTSLLISWDASSSSVSYYEITYGETGGNSPVQEFTVPGSSSTATISGLSPGVDYTITVIAFYSHDDIYISDSPSSINYRT
2500
3. SEQ ID NO 94 (designed binder) VSSVPTKLEVVAATPTSLLISWDASSSSVSHYAITYGETGGNSPVQEFTVPGSSSTATISGLSPGVDYTITVYAYYSYDDLYVSDSPSSINYRT
3600
4. SEQ ID NO 92 (designed binder) VSSVPTKLEVVAATPTSLLISWDASSSSVSHYEITYGETGGNSPVQEFTVPGSSSTATISGLSPGVDYTITVTAYDSYYDIYIAYSPSSINYRT
2800
